Assay: Inhibition of caspase-like activity of 20S proteasome
pIC50: −log10 of the molar value.
METRIC_NAME: pIC50

compound_smiles=C[C@H](CCC(=O)O)[C@H]1CC[C@H]2[C@@H]3CC[C@@H]4C[C@H](OC(=O)Cc5cccc(CC(=O)O)c5)CC[C@]4(C)[C@H]3CC[C@]12C test_result=5.19

###

Assay: Inhibition of chymotrypsin-like activity of 20S proteasome
Activity calls are given as the source filed them. No cut-off for these calls is given here.
METRIC_NAME: inhibition

compound_smiles=C[C@H](CCC(=O)O)[C@H]1CC[C@H]2[C@@H]3CC[C@@H]4C[C@H](OC(=O)CCCCCC(=O)O)CC[C@]4(C)[C@H]3CC[C@]12C test_result=inactive
compound_smiles=COC(=O)CC[C@@H](C)[C@H]1CC[C@H]2[C@@H]3CC[C@@H]4C[C@H](OC(=O)CCCCCC(=O)O)CC[C@]4(C)[C@H]3CC[C@]12C test_result=inactive
compound_smiles=CCOC(=O)CC[C@@H](C)[C@H]1CC[C@H]2[C@@H]3CC[C@@H]4C[C@H](OC(=O)CCCCCC(=O)O)CC[C@]4(C)[C@H]3CC[C@]12C test_result=inactive

###

Test: Inhibition of chymotrypsin-like activity of 20S proteasome
Activity calls are given as the source filed them. No cut-off for these calls is given here.
METRIC_NAME: inhibition

compound_smiles=CCOC(=O)CC[C@@H](C)[C@H]1CC[C@H]2[C@@H]3CC[C@@H]4C[C@H](O)CC[C@]4(C)[C@H]3CC[C@]12C test_result=inactive
compound_smiles=COC(=O)CC[C@@H](C)[C@H]1CC[C@H]2[C@@H]3CC[C@@H]4C[C@H](O)CC[C@]4(C)[C@H]3CC[C@]12C test_result=inactive
compound_smiles=COC(=O)CC[C@@H](C)[C@H]1CC[C@H]2[C@@H]3CC[C@@H]4C[C@H](OC(=O)Cc5cccc(CC(=O)O)c5)CC[C@]4(C)[C@H]3CC[C@]12C test_result=inactive
